# Target or test system: UniProtKB Q9BY41
# Sequence (Q9BY41 1-377): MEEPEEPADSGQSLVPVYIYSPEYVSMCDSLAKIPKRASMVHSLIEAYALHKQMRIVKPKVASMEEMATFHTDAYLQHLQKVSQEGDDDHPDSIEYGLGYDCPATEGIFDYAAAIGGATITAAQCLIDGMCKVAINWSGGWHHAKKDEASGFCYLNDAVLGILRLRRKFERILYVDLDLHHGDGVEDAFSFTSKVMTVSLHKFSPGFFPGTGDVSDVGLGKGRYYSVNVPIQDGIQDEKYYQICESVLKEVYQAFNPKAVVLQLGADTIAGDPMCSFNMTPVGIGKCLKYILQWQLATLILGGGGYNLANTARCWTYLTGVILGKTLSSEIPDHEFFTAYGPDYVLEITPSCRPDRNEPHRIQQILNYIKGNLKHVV
Readout: IC50 (nM)

# Structure smiles, IC50, nM
records = [
    ("O=C(NO)c1cc(F)c(Cn2nnc(-c3ccco3)n2)c(F)c1", 647),
]

(1) CN(C)c1cccc(-c2nnc(Sc3ccc(C(=O)NO)cc3)n2C)c1
(2) O=C(NO)c1ccc(Cn2nnc(-c3cccs3)n2)cc1
Please compare: 1 and 2 . Report which one has the smaller IC50 value. Record your answer as the label of the chosen record.
2
(2: 455 nM, 1: 795 nM)

(P) Cc1cc(-c2nnc(Sc3ccc(C(=O)NO)cc3)n2C)nn1C
(Q) O=C(NO)c1ccc(Cn2nnc(-c3ccccc3F)n2)cc1
Please compare: P and Q . Report which one has the smaller IC50 value. Record your answer as the label of the chosen record.
P
(P: 216 nM, Q: 413 nM)
